target: Inadl_5, Q8NI35; assay: holdup assay; parameters: key: below the threshold = too weak to quantify, mostly under pKd 3.1 to 4; conditions: plain residues with an end cap or a label only (N-terminal biotin on a linker: ado-ado)
Sequence (Q8NI35 673-780): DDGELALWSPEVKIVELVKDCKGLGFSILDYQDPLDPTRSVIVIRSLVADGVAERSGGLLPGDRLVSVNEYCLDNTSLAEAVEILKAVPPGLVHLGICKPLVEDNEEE
Property label: pKd

Past entries and their recorded results:
- Binder: "QKNKDKEYYV [NRXN3_rs746444206, Q9Y4C0]"
  pKd: 4.55
- Binder: "EDLTKNHDEL [RCN1, Q15293]"
  pKd: "below the threshold"
- Binder: "FVHPILQSAV [PRKCA, P17252]"
  pKd: "below the threshold"
- Binder: "GFGEERESIL [KIDINS220, Q9ULH0]"
  pKd: "below the threshold"
- Binder: "EEPEERHTEL [CES2, O00748]"
  pKd: "below the threshold"

// next entry
pKd measured on TETASVCTKV [SLC23A1, Q9UHI7] = below the threshold
